A collection of compounds and their measured TGI
# System: NCI/ADR-RES ovarian
# TEST_SUMMARY: NCI tumour cell line growth inhibition, 48 h
Entry rule: numbers only, all in µM.

Cc1ccccc1N/C(=C(/C(Cl)=C(Cl)Cl)[N+](=O)[O-])n1nnc2ccccc21 ... 49.5

Q: // fetch NCI/ADR-RES ovarian TGI for CC(C)N(C(=O)C1(O)c2ccccc2C=Cc2ccccc21)C(C)C
A: 35.4

###

# Test system: COLO 205 colon
# TEST_SUMMARY: NCI tumour cell line growth inhibition, 48 h
Lab note: anything with TGI at or over 30 µM counts as y; the rest go in n.

Use the examples below as a reference point.
COc1ccc(NC(=O)N(C)CC2(O)CCC(C(C)(C)C)CC2)cc1 (stereo not given) ... y
Ic1cccc(/C=C/CN2CCN(CCOC(c3ccccc3)c3ccccc3)CC2)c1 ... y
CC1COC(C)(C)P(=O)(c2ccccc2)C1 (stereo not given) ... y
Cc1c(/C=N/NC(=O)c2ccc(Cl)cc2)c(=O)n(-c2ccccc2)n1C ... y
Cc1nc(-[n+]2nc(-c3ccncc3)nn2-c2ccccc2)sc1C ... y
O=C(Nc1ccc(-n2ccc3c(NC(=O)c4ccccc4)nccc32)cc1)Nc1ccc(Cl)c(Cl)c1 ... n

Q: Dear colleague, could you confirm whether COc1cc(O)c(C(=O)/C=C/c2ccc(O)cc2)cc1Oc1ccc(/C=C/C(=O)c2ccc(O)cc2O)cc1 has TGI at or above 30 µM?
A: n

Q: Dear colleague, could you confirm whether O=C(c1ccccc1)c1c(-c2ccccc2)n(-c2ccccc2)[nH]c(=O)c1=O has TGI at or above 30 µM?
A: y

Source listed as PubChem BioAssay (NCI).
